TEST TARGET: Schistosoma mansoni thioredoxin glutathione reductase (TGR) (UniProt Q962Y6)
PROTOCOL SUMMARY: qHTS Assay for the Inhibitors of Schistosoma Mansoni Peroxiredoxins; also: nearly all actives have a fitted effect of over 60% in size
CONDITION PARAMETERS: purified TGR, DTNB reduction, TNB absorbance 405 nm; series mostly up to 114 µM
The campaign covered roughly 360,000 compounds. About 11,000 (3.1%) were called active. Inconclusive results (about 4%) are left out. Calls follow the shape of the dose curve; as a rule, active = well fitted inhibition curve with a large enough effect; inconclusive = small, poorly fitted or top-dose-only effect; inactive = no such curve, though single readings can be large or run the other way. Only a selection was taken, and actives are over-represented in it overall.
Choose one outcome from this list and give only that: active, inactive

[in] Would you mind telling me which call this test gave `CCc1cccc(NC(=O)c2cnc(N3CCOCC3)c3ccccc23)c1` ?
[out] inactive

[in] Follow-up item: Cc1ccc(C)c(NC(=O)C2CCCN(S(=O)(=O)c3cn(C)cn3)C2)c1 (stereo unspecified)
[out] inactive

[in] Entry COc1ccc(C(CCN(Cc2ccc(OC)c(OC)c2)C(=O)CCl)c2ccccc2)cc1 (stereo unspecified) please
[out] active

[in] Repeat for the following molecule: `COc1ccc(OC)c(-c2csc(-c3c(N)c(C(=O)c4ccccc4)n4ccccc34)n2)c1`
[out] inactive

[in] Follow-up item: `COC(=O)[C@@]12CCCN1[C@H](c1ccc(-c3ccc(F)cc3)c(OC)c1)[C@H]1C(=O)N(C)C(=O)[C@H]12`
[out] inactive

[in] Same again, this time with `O=C(/C=C/c1ccc(Cl)cc1Cl)c1cccnc1`
[out] active

[in] Same read-out for `Cc1ccc(NC(=O)Nc2ccc3oc(C)nc3c2)cc1` ?
[out] inactive

[in] Query `CCc1ccc(S(=O)(=O)c2nnn3c2nc(NCc2ccccc2OC)c2cc(Cl)ccc23)cc1` next
[out] inactive

[in] Entry `COc1ccccc1N1CCN(CCCNC(=O)c2cnn(-c3ccccc3Cl)c2C2CCN(C(=O)OC(C)(C)C)CC2)CC1` please
[out] inactive

[in] Item: `CCN(CC)c1ccc2oc(=O)c(C)nc2c1`
[out] active

[in] Same for `COc1ccccc1-c1nnc(SCC(N)=O)o1`
[out] inactive

[in] For `Oc1cc2c(cc1CN1CCN(c3ccccc3)CC1)OCO2` then?
[out] active

[in] Another molecule to check: `CCc1ccc2oc(-c3ccc(N)cc3)nc2c1`
[out] inactive

[in] Queued: `Cc1ccc(S(=O)(=O)c2cn(Cc3ccccc3)c3cc(N4CCCC4)c(F)cc3c2=O)c(C)c1`
[out] inactive

[in] And for `CCOC(=O)c1ccc(-c2ccc(/C=C(\C#N)C(=O)Nc3ccc(C)cc3)o2)cc1` ?
[out] inactive

[in] Next molecule: CCCCOC(=O)CSc1ncnc2sc3c(c12)CCC(C)C3 (stereo unspecified)
[out] inactive

[in] What do you have for CCOc1ccc(CNC(=O)C2CCCN(S(=O)(=O)N(CC)c3ccc(OCC)cc3)C2)cc1 (stereo unspecified) ?
[out] inactive

[in] Also check `CCOC(=O)c1ccc2c(c1)N(Cc1cccc(OC)c1)C(=O)c1ccccc1S2(=O)=O`
[out] inactive

[in] What do you get for `O=c1[nH]c2cc(Br)ccc2n2cccc12` ?
[out] inactive

[in] Same again, this time with C#CCOc1ccc(C2CC(=O)Nc3c2c(C)nn3-c2nc(C)cc(C)n2)cc1 (stereo unspecified)
[out] inactive

[in] Next record, please: `O=c1/c(=C/c2ccc(CNS(=O)(=O)c3ccccc3)o2)sc2n1CCN=2`
[out] active

[in] Param item: `COc1ccc(NS(=O)(=O)c2cc3c4c(c2)CC(=O)N4CCC3)cc1Cl`
[out] inactive

[in] Try this molecule too: `COc1ccc(Cl)cc1NC(=O)c1sc2nc3c(cc2c1N)CN(C)CC3`
[out] inactive

[in] How about `COc1ccccc1-c1cc2nc(C)c(CCC(=O)O)c(C)n2n1` ?
[out] inactive

[in] Do the same for `COc1cc2nc(SCC(=O)Nc3ccccc3F)n3nc(-c4ccccc4)nc3c2cc1OC` please
[out] inactive

[in] Would you kindly repeat that for COc1cccc(NC(=O)C(=O)NCC(c2ccc3c(c2)OCO3)N2CCN(C)CC2)c1 (stereo unspecified) ?
[out] inactive

[in] Continue with `CCN1C(=O)[C@H]2[C@@H](c3ccc(-c4ccc(F)cc4)cc3)N[C@@](Cc3ccccc3)(C(=O)OC)[C@H]2C1=O`
[out] inactive

[in] Lookup `COc1cc(C(=O)NCCc2csc3nc(-c4ccccc4C)nn23)cc(OC)c1OC`
[out] inactive

[in] Please do the same for `COC(=O)c1ccccc1NC(=O)c1cncc(Br)c1` as well.
[out] inactive

[in] Now the same for `O=C(NCC#CCSc1nnc(-c2cccc3ccccc23)o1)c1cccs1`
[out] active

[in] Another: `O=C(OCC#CCSc1nnc(-c2ccncc2)o1)c1sc2ccccc2c1Cl`
[out] inactive

[in] And then CSc1ccc(C2c3c(oc4ccccc4c3=O)C(=O)N2CCCN2CCOCC2)cc1 (stereo unspecified) , what is it?
[out] inactive

[in] Subsequent entry: `O=S(=O)(NCc1ccccc1)c1ccc(S(=O)(=O)N2CCCC2)cc1`
[out] inactive

[in] # repeat for `COc1ccc(S(=O)(=O)c2c(Nc3cccc(Cl)c3)sc(C(=O)c3ccccc3)c2N)cc1`
[out] inactive

[in] Check COCCn1nnnc1C(c1cc2ccc(OC)cc2[nH]c1=O)N1CCc2ccccc2C1 (stereo unspecified) too.
[out] active

[in] Can you check `Cc1ccn2c(Nc3ccc4c(c3)OCCO4)c(-c3ccc(C)s3)nc2c1` next?
[out] inactive

[in] Check `O=C(OCc1cc(Cl)ccc1OC(F)F)c1cccnc1` too.
[out] inactive

[in] Next: `COc1ccc(N2CCN(c3nc(-c4ccccc4F)nc4ccccc34)CC2)cc1`
[out] inactive

[in] Next molecule up: Cc1cc(-c2ccc(C)c(S(=O)(=O)N3c4ccccc4CC3C)c2)on1 (stereo unspecified)
[out] inactive

[in] Try this molecule next: `Cc1ccc(NC(=O)CCCn2c(=O)c3cccn3c3ccccc32)cc1Cl`
[out] inactive

[in] And `CCN1C(=O)[C@@H]2[C@@H](c3ccc(-c4ccccc4)cc3)N3CCCC[C@@]3(C(=O)OC)[C@@H]2C1=O` ?
[out] active
